experiment: in vitro; conditions: human, CC50 HepG2+Gal
endpoint label: CC50 (nM)
I only need the number, in nM, no unit after it.

Req: If you can, please state the reported CC50 value of CN[C@@H]1C[C@H]2O[C@@](C)([C@@H]1OC)n1c3ccccc3c3c4c(c5c6ccccc6n2c5c31)C(=O)NC4 [21 (STA), staurosporine, reference compound] .
Resp: 40

* * *

test: Microsomal stability, human liver microsomes (HLM); assay type: in vitro ADME; conditions: both sexes, human, microsomes, pH 7.4
endpoint label: remaining at 20 min, 6 μM (%)
Form entry: value (%) — number only.

molecule: Cc1nc(NCCCc2ccccc2)c2cc(I)ccc2n1 [18d]
remaining at 20 min, 6 μM / %: 9

Req: For COc1ccc2nc(C)nc(NCCCc3ccccc3)c2c1 [18b] , what is its reported remaining at 20 min, 6 μM?
Resp: 8

* * *

test: in vitro; conditions: African green monkey
endpoint label: CC50 at 72 h (µM)
Numeric answer only, unit µM assumed.

Req: What does the record list as CC50 at 72 h for Cc1nc(NCCc2ccccc2)c2cc(I)ccc2n1 [9d] ?
Resp: 11.7

* * *

test: in vitro; conditions: human
Below: a set of entries, each annotated with reported CC50 at 72 h.

compound: c1ccc(CCCNc2ncnc3ccccc23)cc1 [18e]
CC50 at 72 h: < 1 µM
--
compound: Cc1nc(NCCCc2ccccc2)c2cc(I)ccc2n1 [18d]
CC50 at 72 h: > 20 µM
--
compound: Cc1nc(NCCCc2ccccc2)c2cc(Br)ccc2n1 [18c]
CC50 at 72 h: 13.8 µM
--
compound: Cc1nc(NCCc2ccc3ccccc3c2)c2cc(Br)ccc2n1 [17c]
CC50 at 72 h: < 1 µM
--
compound: Cc1ccc(CCNc2nc(C)nc3ccc(I)cc23)cc1 [15d]
CC50 at 72 h: 10.2 µM
--
compound: Cc1nc(NCCc2ccc(OC(F)(F)F)cc2)c2cc(Br)ccc2n1 [13c]
CC50 at 72 h: < 1 µM
--
compound: Cc1nc(NCCc2ccc(OC(F)(F)F)cc2)c2cc(I)ccc2n1 [13d]
CC50 at 72 h: 7.4 µM
--
compound: COc1ccc2nc(C)nc(NCCCc3ccccc3)c2c1 [18b]
CC50 at 72 h: > 20 µM

Req: Which value of CC50 at 72 h has been reported for CCc1ccc(CCNc2nc(C)nc3ccc(I)cc23)cc1 [16d] in the records?
Resp: 8.3 µM

* * *

experiment: Microsomal stability, mouse liver microsomes (MLM); type: in vitro ADME; conditions: male, BALB/c, mouse, microsomes, pH 7.4
endpoint label: remaining at 10 min, 6 μM
Respond with a number, then the unit of measure.

Req: I'd like to know its remaining at 10 min, 6 μM. The compound in question is COc1ccc2nc(C)nc(NCCCc3ccccc3)c2c1 [18b]
Resp: 7%

* * *

test: Microsomal stability, mouse liver microsomes (MLM); format: in vitro ADME; conditions: male, BALB/c, mouse, microsomes, pH 7.4
endpoint label: remaining at 5 min, 6 μM (%)
Answer in %, number only, no unit symbol.

Req: May I ask what remaining at 5 min, 6 μM has been recorded for Cc1nc(NCCCc2ccccc2)c2cc(I)ccc2n1 [18d] ?
Resp: 63

* * *

assay: in vitro; conditions: human, CC50 HepG2+Glu
endpoint label: CC50 (nM)
// return numeric value only (unit: nM, not printed)

Req: Please report the recorded CC50 for CN[C@@H]1C[C@H]2O[C@@](C)([C@@H]1OC)n1c3ccccc3c3c4c(c5c6ccccc6n2c5c31)C(=O)NC4 [21 (STA), staurosporine, reference compound] .
Resp: 30
